pIC50: −log10 of the molar value. Numbered stars: 1 amine (or outer) side, 2 acyl side, 3 side chain; on linkers, the order of the positions; unused ones are H or OH. Bridge positions count the residues as written; N and C are the ends. Peptide text beside a SMILES is read from it. TBMB = c1c(C[*:1])cc(C[*:3])cc1C[*:2]
This document collects pIC50 values reported for Human thrombin (Homo sapiens, UniProt P00734).

CC(C)C[C@@H]1NC(=O)[C@@H]2CSCc3cc(cc(c3)CSC[C@@H](C(=O)N[C@@H](C)C(N)=O)NC(=O)[C@@H]3CCCN3C(=O)[C@H](CCCNC(=N)N)NC(=O)[C@H](CCCNC(=N)N)NC(=O)[C@H](Cc3ccccc3)NC1=O)CSC[C@H](NC(=O)[C@H](C)N)C(=O)N[C@@H](C)C(=O)N[C@@H](CC(=O)O)C(=O)N1CCC[C@H]1C(=O)N[C@@H](Cc1c[nH]c3ccccc13)C(=O)N[C@@H](C)C(=O)N2 [06-63 T] (H-ACADPWACLFRRPCA-NH2; linker 2-8-14 via TBMB): < 5.00

What value of pIC50 has been reported for the following compound? CC(C)C[C@@H]1NC(=O)[C@H](CO)NC(=O)[C@H]([C@@H](C)O)NC(=O)[C@H]([C@@H](C)O)NC(=O)[C@H](CC(C)C)NC(=O)[C@@H]2CSCc3cc(cc(c3)CSC[C@@H](C(=O)N[C@@H](C)C(N)=O)NC1=O)CSC[C@H](NC(=O)[C@H](C)N)C(=O)N[C@@H](CCCNC(=N)N)C(=O)N[C@@H](Cc1c[nH]c3ccccc13)C(=O)N1CCC[C@H]1C(=O)N[C@@H](C)C(=O)N[C@@H](CCCNC(=N)N)C(=O)N2 [Peptide 06-59] (H-ACRWPARCLTTSLCA-NH2; linker 2-8-14 via TBMB)
< 5.00

---

# tgt: human plasma kallikrein (hPK) (Homo sapiens, UniProt P03952)
# assay-explanation: Enzyme inhibition assay, human plasma kallikrein
Numbered stars: 1 amine (or outer) side, 2 acyl side, 3 side chain; on linkers, the order of the positions; unused ones are H or OH. Bridge positions count the residues as written; N and C are the ends. Peptide text beside a SMILES is read from it. TBMB = c1c(C[*:1])cc(C[*:3])cc1C[*:2]
value-type: pKi
One number for each entry, as −log10 of the molar value.

CC(C)[C@@H]1NC(=O)[C@H](CCCNC(=N)N)NC(=O)[C@@H]2CSCc3cc(cc(c3)CSC[C@@H](C(=O)N[C@@H](C)C(N)=O)NC(=O)[C@H](C)NC1=O)CSC[C@H](NC(=O)[C@H](C)N)C(=O)N[C@@H](Cc1ccccc1)C(=O)N1CCC[C@H]1C(=O)N[C@@H](CCCCN)C(=O)N2 [Peptide 3A3] (H-ACFPKCRVACA-NH2; linker 2-6-10 via TBMB): 7.37
CC(=O)N[C@H]1CSCc2cc3cc(c2)CSC[C@H](NC(=O)[C@@H]2CCCN2C(=O)[C@H](CO)NC(=O)[C@H](CCCNC(=N)N)NC(=O)[C@H](C)NC(=O)[C@H](Cc2c[nH]c4ccccc24)NC1=O)C(=O)N[C@@H](CC(C)C)C(=O)N[C@@H](Cc1c[nH]cn1)C(=O)N[C@@H](CCC(N)=O)C(=O)N[C@@H](CC(=O)O)C(=O)N[C@@H](CC(C)C)C(=O)N[C@H](C(N)=O)CSC3 [Ac-(06-34-18) Scram4] (Ac-CWARSPCLHQDLC-NH2; linker 1-7-13 via TBMB): 4.17
CC(=O)N[C@H]1CSCc2cc3cc(c2)CSC[C@@H](NC(=O)[C@H](CCCNC(=N)N)NC(=O)[C@H](C)NC(=O)[C@@H]2CCCN2C(=O)[C@H](Cc2c[nH]c4ccccc24)NC(=O)[C@H](CO)NC1=O)C(=O)N[C@@H](CC(C)C)C(=O)N[C@@H](Cc1c[nH]cn1)C(=O)N[C@@H](CCC(N)=O)C(=O)N[C@@H](CC(=O)O)C(=O)N[C@@H](CC(C)C)C(=O)N[C@H](C(N)=O)CSC3 [Ac-(06-34-18) D-Cys2]: 6.63
CC(C)[C@@H]1NC(=O)[C@H](CCCNC(=N)N)NC(=O)[C@@H]2CSCc3cc(cc(c3)CSC[C@@H](C(=O)N[C@@H](C)C(N)=O)NC(=O)[C@H](CC(N)=O)NC1=O)CSC[C@H](NC(=O)[C@H](C)N)C(=O)N[C@@H](Cc1ccccc1)C(=O)N[C@@H](Cc1ccc(O)cc1)C(=O)N[C@@H](CCCCN)C(=O)N2 [Peptide 06-71] (H-ACFYKCRVNCA-NH2; linker 2-6-10 via TBMB): 7.82

Turning now to a further record.
What value of pKi has been reported for the following molecule? CC(C)C[C@@H]1NC(=O)[C@@H]2CSCc3cc(cc(c3)CSC[C@@H](C(=O)N[C@@H](C)C(N)=O)NC(=O)[C@H](Cc3ccc(O)cc3)NC(=O)[C@H](CC(=O)O)NC(=O)[C@H](CCC(N)=O)NC(=O)[C@H](Cc3c[nH]cn3)NC1=O)CSC[C@H](NC(=O)[C@H](C)N)C(=O)N[C@@H](CO)C(=O)N[C@@H](Cc1c[nH]c3ccccc13)C(=O)N1CCC[C@H]1C(=O)N[C@@H](Cc1ccc(O)cc1)C(=O)N[C@@H](CCCNC(=N)N)C(=O)N2 [Peptide 06-61] (H-ACSWPYRCLHQDYCA-NH2; linker 2-8-14 via TBMB)
8.24
